Cited source: paper PMC10391610

Below: a set of entries, each annotated with reported <k>.
TEST_TARGET: [U-15N]-survivin (Homo sapiens)
Construct: transferred to the survivin1-142 construct used in the present study; His8 tag (pHIS8 vector, thrombin-cleavable); made in house; host or cells: E. coli BL21(DE3) star, M9 medium with 15NH4Cl
Sequence (O15392 whole entry): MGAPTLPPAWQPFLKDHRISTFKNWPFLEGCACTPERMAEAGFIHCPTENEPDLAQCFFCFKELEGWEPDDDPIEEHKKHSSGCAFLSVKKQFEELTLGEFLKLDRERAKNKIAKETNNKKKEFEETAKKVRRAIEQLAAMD
ASSAY_SUMMARY: NMR titration of [U-15N]-survivin with PRC2-derived peptides
Format: binding
EXPERIMENTAL_PARAMETERS: logistic function parameter k, posterior mean (Table S10)
Enter a number only.

| SEQ_TEXT | EXPERIMENTAL_RESULT |
| --- | --- |
| PNSMVYFGSSQDEEEVEEEDDETED [JARID2_170-194, PRC2-derived peptide, JARID2 residues 170–194, synthesized by Biomatik] | 1.25 |
| SQGEIRLLQSYVDADADENFYTCAW [EED128-152, PRC2-derived peptide, EED residues 128–152, synthesized by Biomatik] | -0.01 |
| PLRPQEMEVDSEDEKDPEWLREKTI [SUZ12_573-597, PRC2-derived peptide, SUZ12 residues 573–597, synthesized by Biomatik] | 0.99 |

// below: <k> requested for another sequence
Value of <k> reported for the sequence VELVNALGQYNDDDDDDDGD DPEEREEKQKDLEDHRDDKE [EZH2_172-211, PRC2-derived peptide, EZH2 residues 172–211, synthesized by Biomatik] is -1.04
